Form field: Potency (one value per entry).
- PROCEDURE SUMMARY: qHTS Screen of the MIPE 4.0 Collection Against Ewings Sarcoma (TC71) (AID 1259253); note: potency is the fitted concentration of half-maximal effect; nearly all actives have a fitted effect of over 40% in size
- TEST CONDITIONS: TC71 Ewing sarcoma viability, CellTiter-Glo, 48 h; series mostly up to 45.8 µM
Results filed as inconclusive are left out. Calls of active or inactive are those of the source. Calls come from the whole dose curve; as a rule, active = well fitted inhibition curve with a large enough effect; inconclusive = small, poorly fitted or top-dose-only effect; inactive = no such curve, though single readings can be large or run the other way.

MOLECULE	Potency
CC1=C(C(=O)Nc2cc3cn[nH]c3cc2F)C(c2ccc(Cl)cc2F)N=C(c2ccnc(Cl)c2)N1 (stereo not given)	14.8 µM (active)
NC(=O)N1CCC(CC(=O)N2CCC([C@H]3c4ncc(Br)cc4CCc4cc(Cl)cc(Br)c43)CC2)CC1	16.6 µM (active)
CC(C)n1cnc2c(NCCc3ccc(O)cc3)nc(-c3csc4ccccc34)nc21	4.18 µM (active)
CCNC(=O)c1cc2c(-c3cc(OCCN4CCCC4)c(Cl)cc3Cl)nc(N)nc2s1	1.32 µM (active)
